Test system: recombinant human FUCA1 (human lysosomal α-L-fucosidase) (Homo sapiens)
Sequence (P04066 32-466): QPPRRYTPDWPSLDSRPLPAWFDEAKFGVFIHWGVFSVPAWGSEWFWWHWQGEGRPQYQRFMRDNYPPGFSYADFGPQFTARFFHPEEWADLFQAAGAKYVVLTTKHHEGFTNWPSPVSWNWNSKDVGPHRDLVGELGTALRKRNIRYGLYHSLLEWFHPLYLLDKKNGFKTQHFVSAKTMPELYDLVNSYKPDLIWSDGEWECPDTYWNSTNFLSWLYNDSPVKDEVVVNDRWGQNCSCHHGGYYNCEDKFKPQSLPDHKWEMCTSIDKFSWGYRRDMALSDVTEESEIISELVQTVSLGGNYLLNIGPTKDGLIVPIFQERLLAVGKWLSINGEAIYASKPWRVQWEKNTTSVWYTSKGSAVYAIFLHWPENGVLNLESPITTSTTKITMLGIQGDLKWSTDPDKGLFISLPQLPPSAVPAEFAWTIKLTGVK
Assay method text: In vitro inhibition of FUCA1 activity, 4-methylumbelliferyl-α-L-fucopyranoside substrate, lysates of COS-7 cells over-expressing enzyme
// classify: if (IC50 < 9 nM) 1 else -1

1) C[C@H]1[C@@H](O)[C@@H](O)[C@H](O)[C@H]2[C@@H]1N2C(=O)CCCCCCCn1cc(CNC(=O)CCCCCNC(=O)CCCC[C@@H]2SC[C@@H]3NC(=O)N[C@@H]32)nn1 [compound 3] ... 1
2) C[C@H]1[C@@H](O)[C@@H](O)[C@H](O)[C@H]2[C@@H]1N2C(=O)c1ccccc1 [compound 4] ... -1
3) C[C@H]1[C@@H](O)[C@@H](O)[C@H](O)[C@H]2[C@@H]1N2C(=O)CCCCCCCN=[N+]=[N-] [compound 23] ... 1
4) CC(=O)N1[C@@H]2[C@@H](C)[C@@H](O)[C@@H](O)[C@H](O)[C@@H]21 [compound 5] ... -1
5) COc1ccc(C2=[N+]3C(=C(CCCCc4cn(CCCCCCCC(=O)N5[C@@H]6[C@@H](C)[C@@H](O)[C@@H](O)[C@H](O)[C@@H]65)nn4)c4ccc(-c5ccc(OC)cc5)n4[B-]3(F)F)C=C2)cc1 [compound 2] ... 1
6) CC1=CC(C)=[N+]2C1=C(CCCCc1cn(CCCCCCCC(=O)N3[C@@H]4[C@@H](C)[C@@H](O)[C@@H](O)[C@H](O)[C@@H]43)nn1)c1c(C)cc(C)n1[B-]2(F)F [compound 1] ... 1

###

Test system: FUCA1 (recombinant human GH29 α-L-fucosidase per table title) (Homo sapiens)
Construct: endogenous in cells
Sequence (P04066 32-466): as above
Assay method text: In situ inhibition of FUCA1 in living fibroblasts
Value kind: IC50 (nM)

1) C[C@H]1[C@@H](O)[C@@H](O)[C@H](O)[C@H]2[C@@H]1N2C(=O)c1ccccc1 ... 515
2) CC(=O)N1[C@@H]2[C@@H](C)[C@@H](O)[C@@H](O)[C@H](O)[C@@H]21 ... 77.9
3) COc1ccc(C2=[N+]3C(=C(CCCCc4cn(CCCCCCCC(=O)N5[C@@H]6[C@@H](C)[C@@H](O)[C@@H](O)[C@H](O)[C@@H]65)nn4)c4ccc(-c5ccc(OC)cc5)n4[B-]3(F)F)C=C2)cc1 ... 158
4) C[C@H]1[C@@H](O)[C@@H](O)[C@H](O)[C@H]2[C@@H]1N2C(=O)CCCCCCCN=[N+]=[N-] ... 65.4
5) CC1=CC(C)=[N+]2C1=C(CCCCc1cn(CCCCCCCC(=O)N3[C@@H]4[C@@H](C)[C@@H](O)[C@@H](O)[C@H](O)[C@@H]43)nn1)c1c(C)cc(C)n1[B-]2(F)F ... 28.9

# credit: paper PMC5654414
